# METHOD: Unbound clearance in rat
# Format: ADME
# CONDITIONS_USED: in vivo

{"columns": ["STRUCTURE", "UNIT_NAME", "CL free"],
 "data": [
  ["Nc1nc2cc(O[C@H]3CC[C@@]4(O)[C@@H]3O[C@@H](n3ccc5c(N)ncnc53)[C@@H]4O)ccc2cc1F", "mL/min/kg", 289],
  ["Cc1ncnc2c1ccn2[C@@H]1O[C@@H]2[C@H](Cc3ccc4ccc(N)nc4c3)CC[C@]2(O)[C@H]1O", "mL/min/kg", 648],
  ["CNc1ncnc2c1ccn2[C@@H]1O[C@@H]2[C@H](Cc3ccc4cc(Br)c(N)nc4c3)CC[C@]2(O)[C@H]1O", "mL/min/kg", 900],
  ["Cc1ncnc2c1ccn2[C@@H]1O[C@@H]2[C@H](Cc3ccc4cc(F)c(N)nc4c3)CC[C@]2(O)[C@H]1O", "mL/min/kg", 351],
  ["Cc1ncnc2c1ccn2[C@@H]1O[C@@H]2[C@H](Cc3ccc4cc(Br)c(N)nc4c3)CC[C@]2(O)[C@H]1O", "mL/min/kg", 2163],
  ["Cc1ncnc2c1ccn2[C@@H]1C[C@@H]2[C@H](Cc3ccc4cc(F)c(N)nc4c3)CC[C@]2(O)[C@H]1O", "mL/min/kg", 374],
  ["Cc1nc(N)c2ccn([C@@H]3O[C@@H]4[C@H](Cc5ccc6cc(Br)c(N)nc6c5)CC[C@]4(O)[C@H]3O)c2n1", "mL/min/kg", 1337],
  ["Nc1nc2cc(C[C@@H]3CC[C@@]4(O)[C@@H]3C[C@@H](n3ccc5c(N)ncnc53)[C@@H]4O)ccc2cc1Br", "mL/min/kg", 1559],
  ["Cc1ncnc2c1ccn2[C@@H]1O[C@@H]2[C@@H](Oc3ccc4cc(Cl)c(N)nc4c3)CC[C@]2(O)[C@H]1O", "mL/min/kg", 710],
  ["Cc1nc(N)c2ccn([C@@H]3C[C@@H]4[C@H](Cc5ccc6cc(F)c(N)nc6c5)CC[C@]4(O)[C@H]3O)c2n1", "mL/min/kg", 789],
  ["Nc1nc2cc(C[C@@H]3CC[C@@]4(O)[C@@H]3O[C@@H](n3cc(F)c5c(N)ncnc53)[C@@H]4O)ccc2cc1F", "mL/min/kg", 541]
]}
